Below, each of the compounds is paired with its reported solubility value.
# experiment.notes: Aqueous solubility of the compound in pH 7.4
# Type: physicochemical
# condition.parameters: buffer
experimental.endpoint: solubility (µM)

1) CC(C)n1c(=O)n(C)c2cnc3ccc(-c4ccc(OCCCN5CCC(F)CC5)nc4)cc3c21 | 15
2) COCc1ccc(-c2ccc3ncc4c(c3c2)n([C@H]2CCCOC2)c(=O)n4C)cn1 | 125
3) COCc1ccc(-c2ccc3ncc4c(c3c2)n(C(C)C)c(=O)n4C)cn1 | 42
4) CC(C)n1c(=O)n(C)c2cnc3ccc(-c4ccc(OCCCN(C)C)nc4)cc3c21 | 480

====

# experiment.notes: Aqueous solubility of the compound in pH 7.4
# Format: physicochemical
# condition.parameters: buffer
experimental.endpoint: log10(solubility) (log10 of the value in µM)

1) CC(C)n1c(=O)n(C)c2cnc3ccc(-c4ccc(OCCCN(C)C)cc4)cc3c21 | 2.51
2) CC(C)n1c(=O)n(C)c2cnc3ccc(-c4ccc(N5CC(N(C)C)C5)nc4)cc3c21 | 1.00
3) CC(C)n1c(=O)n(C)c2cnc3ccc(-c4ccc(OCCCN5CC[C@H](F)C5)nc4)cc3c21 | 1.63
4) CC(C)n1c(=O)n(C)c2cnc3ccc(-c4ccc(OCCCN5CCCC5)nc4)cc3c21 | 2.70
5) CC(C)n1c(=O)n(C)c2cnc3ccc(-c4ccc(N5CC6(CN(C)C6)C5)nc4)cc3c21 | 2.97

The measured values listed here are drawn from ChEMBL document CHEMBL5528042.
